Value source: ChEMBL document CHEMBL4049402

- Test system: A549
- method.summary: Cytotoxicity against human A549 cells after 48 hrs by MTT assay
- Assay type: functional, cell-based
- condition.description: Homo sapiens, A549, 48 h
readout: IC50

# count of solved cases: 4
smi: c1ccc2c(c1)ncn2Cc1c2c(cc3c1OCC3)OCC2
target.of.assay: A549
recorded.value: > 20 µM

smi: Cc1n(Cc2c3c(cc4c2OCC4)OCC3)c2ccccc2[n+]1CC(=O)c1ccccc1
target.of.assay: A549
recorded.value: > 20 µM

smi: Cc1nc2ccccc2n1Cc1c2c(cc3c1OCC3)OCC2
target.of.assay: A549
recorded.value: > 20 µM

smi: O=C(C[n+]1ccn(Cc2c3c(cc4c2OCC4)OCC3)c1)c1ccc2ccccc2c1
target.of.assay: A549
recorded.value: > 20 µM

For the compound "COc1ccc(C(=O)C[n+]2c(C)n(Cc3c4c(cc5c3OCC5)OCC4)c3ccccc32)cc1" , report IC50.
> 20 µM

====

- Test system: A549
- method.summary: Cytotoxicity against human A549 cells after 48 hrs by MTT assay
- Format: functional, cell-based
- condition.description: a549
readout: IC50 (µM)
I only need the number, in µM, no unit after it.

Would you please look over these solved cases?
smi: Cc1ccc(C[n+]2cn(Cc3c4c(cc5c3OCC5)OCC4)c3cc(C)c(C)cc32)cc1
readout: IC50
unit.label: µM
recorded.value: 4.06
--
smi: Cc1cc2c(cc1C)[n+](Cc1ccc3ccccc3c1)cn2Cc1c2c(cc3c1OCC3)OCC2
readout: IC50
unit.label: µM
recorded.value: 3.62
--
smi: Cc1cc2c(cc1C)[n+](Cc1ccc(Br)cc1)cn2Cc1c2c(cc3c1OCC3)OCC2
readout: IC50
unit.label: µM
recorded.value: 9.01

Here's the next entry for you.
Supply recorded IC50 for "Cc1cc2c(cc1C)[n+](CC(=O)c1ccc(Br)cc1)cn2Cc1c2c(cc3c1OCC3)OCC2" here.
15.3

====

- Tested on: A549
- method.summary: Cytotoxicity against human A549 cells after 48 hrs by MTT assay
- Type: functional, cell-based
- condition.description: Homo sapiens, A549, 48 h
Reported IC50 is given for each of the following compounds.
Numbers only; they are read as µM.

Below, each entry is followed by its recorded IC50 result.
smi: Cc1cc2c(cc1C)[n+](Cc1ccc3ccccc3c1)cn2Cc1c2c(cc3c1OCC3)OCC2
IC50 / µM: 4.34
//
smi: Cc1cc2c(cc1C)[n+](CC(=O)c1ccc(Br)cc1)cn2Cc1c2c(cc3c1OCC3)OCC2
IC50 / µM: 8
//
smi: Cc1n(Cc2c3c(cc4c2OCC4)OCC3)c2ccccc2[n+]1CC(=O)c1ccc2ccccc2c1.[Br-]
IC50 / µM: 6.1

From here, focus on the item given below.
Tell me IC50 reported for "O=C(C[n+]1cn(Cc2c3c(cc4c2OCC4)OCC3)c2ccccc21)c1ccc2ccccc2c1"
7.73

====

- Test system: SMMC-7721
- method.summary: Cytotoxicity against human SMMC7721 cells after 48 hrs by MTT assay
- Format: functional, cell-based
- condition.description: smmc-7721
Consider the following compounds and their measured IC50 readings.
Reply numerically in µM, unit not repeated.

Completed entries (count: 2):
smi: Cc1cc2c(cc1C)[n+](Cc1ccc3ccccc3c1)cn2Cc1c2c(cc3c1OCC3)OCC2
target.of.assay: SMMC-7721
IC50 / µM: 2.98
--
smi: Cc1ccc(C[n+]2cn(Cc3c4c(cc5c3OCC5)OCC4)c3cc(C)c(C)cc32)cc1
target.of.assay: SMMC-7721
IC50 / µM: 6.49

Could you now consider this next compound?
Find the measured IC50 of "Cc1cc2c(cc1C)[n+](Cc1ccc(Br)cc1)cn2Cc1c2c(cc3c1OCC3)OCC2" with SMMC-7721 as test system.
6.61

====

- System: A549
- method.summary: Cytotoxicity against human A549 cells after 48 hrs by MTT assay
- Type: functional, cell-based
- condition.description: Homo sapiens, A549, 48 h
readout: pIC50
On this scale, pIC50 is minus log10 of a concentration expressed in M (mol/L).

Guide cases for pIC50, answers given:
smi: Cc1n(Cc2c3c(cc4c2OCC4)OCC3)c2ccccc2[n+]1Cc1ccc2ccccc2c1
pIC50: 5.04
--
smi: c1ccc2cc(C[n+]3cn(Cc4c5c(cc6c4OCC6)OCC5)c4ccccc43)ccc2c1
pIC50: 4.97
--
smi: Cc1ccc(C[n+]2cn(Cc3c4c(cc5c3OCC5)OCC4)c3cc(C)c(C)cc32)cc1
pIC50: 5.24

Then there is this compound:
Fill in pIC50 for record "Cc1cc2c(cc1C)[n+](Cc1ccccc1Br)cn2Cc1c2c(cc3c1OCC3)OCC2"
5.06
